- target.system: acetylcholine receptor
- experiment.notes: SPR, AchR on CM5 chip, peptide 10 µM
reported.endpoint: Binding affinity (RU)
Numbers only, in RU.

List Binding affinity (RU) for every entry below, keeping the order given.
1. RRCSHR [6mer-1-1148]
2. KKADHK [6mer-1-1176]
3. RKCAFK [6mer-1-1163]

Result:
1: 31; 2: 21; 3: 21
